Values were extracted from the supplement of paper PMC10724198.

Task for the reader: assign each of the following sequences its reported protein stability index.
Tested on: Saccharomyces cerevisiae
Assay: protein stability index of tFT-peptide fusion (C-terminal peptide) (PSI (0-1 scale)); higher = more stable (slower turnover)
Settings: genetic background: wild type; temperature: 30 C
One number for each entry.

Known results for sequences:
- sequence.chain: "GWFRDCEWGASS"
  protein stability index: 0.712
- sequence.chain: "RCVFGFGGVVVV"
  protein stability index: 0.622
- sequence.chain: "LRRSRQGGSGRR"
  protein stability index: 0.6

Required: protein stability index, one value per sequence below.
1. RDRAPLLNLACL
2. IKHKSKKNNCKK
3. LCLIGQPQTRVS
4. AACSCGCLTGVG
5. APDPARPSTRPL

Response given:
[0.689, 0.744, 0.695, 0.527, 0.689]

* * *

System: Saccharomyces cerevisiae;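 also: PSI is a weighted mean of sequencing reads over stability bins, variants kept only with over 10 reads, mCherry proximal and sfGFP distal, peptide attached via GGGS linker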
Assay: protein stability index of tFT-peptide fusion (C-terminal peptide) (PSI (0-1 scale)); higher = more stable (slower turnover)
Details: genetic background: wild type; temperature: 30 C
Task for the reader: assign each of the following sequences its reported protein stability index.
One number for each entry.

Previously resolved entries follow.
- sequence.chain: "VPLSPPRTPTLY"
  assayed.system: "Saccharomyces cerevisiae"
  readout: "protein stability index"
  observed.value: 0.648
- sequence.chain: "RGCRVMATGVGV"
  assayed.system: "Saccharomyces cerevisiae"
  readout: "protein stability index"
  observed.value: 0.651
- sequence.chain: "FCNAVLSCFSIF"
  assayed.system: "Saccharomyces cerevisiae"
  readout: "protein stability index"
  observed.value: 0.597
- sequence.chain: "DCFSFVASSSFC"
  assayed.system: "Saccharomyces cerevisiae"
  readout: "protein stability index"
  observed.value: 0.77
- sequence.chain: "SPMELEHSSAVP"
  assayed.system: "Saccharomyces cerevisiae"
  readout: "protein stability index"
  observed.value: 0.661

Parameters: items (list). Returns: protein stability index for each item.
1. PPPPPPTPSLRL
2. FWPPPATSAAPC
3. VRGKSARRSSRR
4. HRLGNRGGRTLG
5. QGRYPLNVLIRI
6. FGQERLHMSILF

Response given:
[0.72, 0.79, 0.665, 0.651, 0.57, 0.692]

Hey, quick one: what's protein stability index for each of these?
1. SRRGARRHVRLK
2. PRLFLSICPFSF
3. ARSHSPPPPRPP
4. LFTLFPPFFYSR

Response given:
1: 0.676; 2: 0.682; 3: 0.672; 4: 0.681

Could you tell me protein stability index for each of these sequences? They are listed below.
1. PSSPTPPPSSSP
2. VRAVGSIILPPG
3. RGCSGGVVDWIG
4. LMYPGTSPLSPH
5. GYTSADHATALY
6. LVSLPISFPASL
7. SPPAPLPPPLPR
8. LPSPSSTLSPLR

Response given:
[0.353, 0.656, 0.679, 0.711, 0.755, 0.692, 0.648, 0.674]

Give measured protein stability index for every item shown.
1. PLLPRLNIPREF
2. GFSVFSHSVWVR
3. LPPLLDSPPCSP
4. VVGAIRWGGGRR

Response given:
0.658
0.313
0.733
0.705

Could I get protein stability index for every one of these entries?
1. IARTGLGIIIKI
2. APRPRSPLLPPA

Response given:
1: 0.663; 2: 0.648

Dear colleague, could you send me protein stability index for each of the items below? Thanks.
1. CLRRRSLSPLFI
2. SYALGNVVGGSL
3. VGVATRGVGGGM
4. YWFWLLIGSFSC
5. WVLSRAAFVFFF

Response given:
1: 0.725; 2: 0.72; 3: 0.669; 4: 0.458; 5: 0.44

Please give protein stability index for each item listed below.
1. VSLGALFEFRAA
2. SPTPPPPPPRPP
3. DLTGKGCIYMER
4. GINHLSLKLRLF

Response given:
0.745
0.581
0.702
0.262
